Target under test: Voltage-gated L-type calcium channel (Homo sapiens, UniProt Q13936+Q13698+Q01668+O60840)
Test name: Antagonistic activity at L-type calcium channel by displacement of [3H]diltiazem and enhanced [3H]nitrendipine binding
Assay type: protein assay
# IC50 values compiled below
Reported metric: IC50 (µM)

COc1ccccc1CN[C@H]1C2CCN(CC2)[C@H]1C(c1ccccc1)c1ccccc1 [CP-96345]	0.24
NC(=O)CN[C@H](COCc1cc(C(F)(F)F)cc(C(F)(F)F)c1)C(c1ccccc1)c1ccccc1	1.67
Cc1cc(C)cc(COC[C@H](C(c2ccccc2)c2ccccc2)N(C)C)c1	0.98
Cc1cc(C)cc(COCC(NCC(N)=O)C(c2ccccc2)c2ccccc2)c1 (centres undefined)	5.5

* * *

Target under test: Substance-P receptor (Homo sapiens, UniProt P25103)
Sequence (P25103 whole entry): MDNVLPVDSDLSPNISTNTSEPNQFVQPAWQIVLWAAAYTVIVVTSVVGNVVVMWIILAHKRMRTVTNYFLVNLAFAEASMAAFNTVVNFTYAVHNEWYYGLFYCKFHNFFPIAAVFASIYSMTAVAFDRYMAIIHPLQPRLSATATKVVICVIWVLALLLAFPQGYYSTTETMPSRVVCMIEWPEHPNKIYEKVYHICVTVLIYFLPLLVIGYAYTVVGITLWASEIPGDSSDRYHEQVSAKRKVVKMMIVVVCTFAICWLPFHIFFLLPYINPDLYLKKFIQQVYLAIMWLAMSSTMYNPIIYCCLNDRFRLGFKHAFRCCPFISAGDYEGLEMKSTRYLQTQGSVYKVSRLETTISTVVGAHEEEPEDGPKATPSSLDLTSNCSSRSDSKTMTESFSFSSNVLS
Test name: Binding affinity towards human Tachykinin receptor 1 expressed in CHO cells by the displacement of [125 I] substance P
pIC50: −log10 of the molar value.
Attribute: pIC50
Reported metric: pIC50

Cc1cc(Br)cc(COCC(N)C(c2ccccc2)c2ccccc2)c1 (stereo unspecified)	8.01
NC(COCc1cc(Cl)cc(Cl)c1)C(c1ccccc1)c1ccccc1 (stereo unspecified)	7.95
Cc1cc(C)cc(COCC(NC=O)C(c2ccccc2)c2ccccc2)c1 (stereo unspecified)	7.96
Cc1ccc(C)c(COCC(N)C(c2ccccc2)c2ccccc2)c1 (stereo unspecified)	6.82
Cc1cc(C)cc(COC[C@@H](C(c2ccccc2)c2ccccc2)N(C)C)c1	7.85
Cc1cc(C)cc(COCC(NCC(N)=O)C(c2ccccc2)c2ccccc2)c1 (stereo unspecified)	8.66
Cc1cc(C)cc(COCC(NCc2ccccc2)C(c2ccccc2)c2ccccc2)c1 (stereo unspecified)	7.09
NC(COCc1cccc(I)c1)C(c1ccccc1)c1ccccc1 (stereo unspecified)	7.11
Cc1cc(C)cc(COCC(NC(C)C)C(c2ccccc2)c2ccccc2)c1 (stereo unspecified)	7.26
CCNC(COCc1cc(C)cc(C)c1)C(c1ccccc1)c1ccccc1 (stereo unspecified)	7.90
NC(=O)CNC(COCc1cc(C(F)(F)F)cc(C(F)(F)F)c1)C(c1ccccc1)c1ccccc1 (stereo unspecified)	9.07
Cc1cc(C)cc(COCC(NCC2CC2)C(c2ccccc2)c2ccccc2)c1 (stereo unspecified)	7.03
NC(COCc1cccc(Cl)c1)C(c1ccccc1)c1ccccc1 (stereo unspecified)	7.12
CNC(COCc1cc(C)cc(C)c1)C(c1ccccc1)c1ccccc1 (stereo unspecified)	8.17
NC(=O)CN[C@H](COCc1cc(C(F)(F)F)cc(C(F)(F)F)c1)C(c1ccccc1)c1ccccc1	9.28
NC(COCc1ccccc1)C(c1ccccc1)c1ccccc1 (stereo unspecified)	6.44
Cc1cc(C)cc(COCC(O)C(c2ccccc2)c2ccccc2)c1 (stereo unspecified)	7.77
Cc1cc(C)cc(COC[C@H](C(c2ccccc2)c2ccccc2)N(C)C)c1	8.26
Cc1cc(C)cc(COCC(C(c2ccccc2)c2ccccc2)N(C)C)c1 (stereo unspecified)	8.36
CC(=O)NC(COCc1cc(C)cc(C)c1)C(c1ccccc1)c1ccccc1 (stereo unspecified)	7.68
NC(COCc1cc(Br)cc(Br)c1)C(c1ccccc1)c1ccccc1 (stereo unspecified)	7.88
